Target: Solute carrier organic anion transporter family member 1A2 (OATP1A2) (Homo sapiens, UniProt P46721)
Assay: TP_TRANSPORTER: inhibition of DHEAS uptake (DHEAS: 5 uM, E1S: 100 uM) in Xenopus laevis oocytes
Type: functional, cell-based, Oocyte
Details: Xenopus laevis oocytes expressing OATP1A2 (SLCO1A2), probe DHEAS (5 uM)
Value Type: inhibition at 100 µM (%)

{"columns": ["Structure Smiles", "Quantitative Result"],
 "data": [
  ["C[C@]12CC[C@@H]3c4ccc(OS(=O)(=O)O)cc4CC[C@H]3[C@@H]1CCC2=O", 82.3]
]}

---

Target: Solute carrier organic anion transporter family member 1A2 (OATP1A2) (Homo sapiens)
Assay: TP_TRANSPORTER: inhibition of DHEAS uptake (DHEAS: 5 uM, Dexamethasone: 100 uM) in Xenopus laevis oocytes
Type: functional, cell-based, Oocyte
Conditions: Xenopus laevis oocytes expressing OATP1A2 (SLCO1A2), probe DHEAS (5 uM)

{"columns": ["Structure Smiles", "Unit Spec", "inhibition at 100 µM"],
 "data": [
  ["C[C@@H]1C[C@H]2[C@@H]3CCC4=CC(=O)C=C[C@]4(C)[C@@]3(F)[C@@H](O)C[C@]2(C)[C@@]1(O)C(=O)CO", "%", 97.3]
]}

---

Target: Solute carrier organic anion transporter family member 1A2 (OATP1A2) (Homo sapiens, UniProt P46721)
Experiment: TP_TRANSPORTER: uptake in Xenopus laevis oocytes
Type: functional, cell-based, Oocyte
Conditions: Xenopus laevis oocytes expressing OATP1A2 (SLCO1A2)
Value Type: Km (µM)

{"columns": ["Compound", "Quantitative Result"],
 "data": [
  ["C[C@]12CC[C@H](OS(=O)(=O)O)CC1=CC[C@@H]1[C@@H]2CC[C@]2(C)C(=O)CC[C@@H]12 [PRASTERONE SULFURIC ACID]", 6.6]
]}

---

Target: Solute carrier organic anion transporter family member 1A2 (OATP1A2) (Homo sapiens)
Sequence (P46721 whole entry): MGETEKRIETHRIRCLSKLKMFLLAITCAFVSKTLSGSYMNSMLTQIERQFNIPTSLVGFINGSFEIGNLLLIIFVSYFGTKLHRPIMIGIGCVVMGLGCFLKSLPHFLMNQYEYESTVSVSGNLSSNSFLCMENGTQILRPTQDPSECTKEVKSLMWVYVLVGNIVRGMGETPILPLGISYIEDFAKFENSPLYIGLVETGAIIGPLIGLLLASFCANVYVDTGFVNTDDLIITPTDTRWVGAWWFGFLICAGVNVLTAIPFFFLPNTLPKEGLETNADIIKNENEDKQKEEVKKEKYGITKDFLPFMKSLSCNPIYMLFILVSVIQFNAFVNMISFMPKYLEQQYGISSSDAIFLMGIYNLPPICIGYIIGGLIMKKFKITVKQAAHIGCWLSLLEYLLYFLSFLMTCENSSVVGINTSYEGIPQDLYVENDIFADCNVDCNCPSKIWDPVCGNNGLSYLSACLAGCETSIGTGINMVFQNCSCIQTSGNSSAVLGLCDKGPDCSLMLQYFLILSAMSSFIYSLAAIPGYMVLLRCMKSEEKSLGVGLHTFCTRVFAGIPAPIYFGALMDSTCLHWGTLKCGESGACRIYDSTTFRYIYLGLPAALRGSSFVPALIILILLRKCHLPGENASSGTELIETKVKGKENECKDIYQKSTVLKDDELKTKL
Test: TP_TRANSPORTER: inhibition of DHEAS uptake (DHEAS: 5 uM, TCDC: 100 uM) in Xenopus laevis oocytes
Assay type: functional, cell-based, Oocyte
Settings: Xenopus laevis oocytes expressing OATP1A2 (SLCO1A2), probe DHEAS (5 uM)

{"columns": ["Compound", "inhibition at 100 µM [%]"],
 "data": [
  ["C[C@H](CCC(=O)NCCS(=O)(=O)O)[C@H]1CC[C@H]2[C@@H]3[C@H](O)C[C@@H]4C[C@H](O)CC[C@]4(C)[C@H]3CC[C@]12C [TAUROCHENODEOXYCHOLATE]", 75.2]
]}

---

Target: Solute carrier organic anion transporter family member 1A2 (OATP1A2) (Homo sapiens)
Experiment: TP_TRANSPORTER: inhibition of DHEAS uptake (DHEAS: 5 uM, TUDC: 100 uM) in Xenopus laevis oocytes
Assay type: functional, cell-based, Oocyte
Conditions: Xenopus laevis oocytes expressing OATP1A2 (SLCO1A2), probe DHEAS (5 uM)
Value Type: inhibition at 100 µM (%)

{"columns": ["Structure Smiles", "Target", "Quantitative Result"],
 "data": [
  ["C[C@H](CCC(=O)NCCS(=O)(=O)O)[C@H]1CC[C@H]2[C@@H]3[C@@H](O)C[C@@H]4C[C@H](O)CC[C@]4(C)[C@H]3CC[C@]12C", "Solute carrier organic anion transporter family member 1A2 (OATP1A2) (Homo sapiens)", 85.7]
]}
